Recorded values, source PubChem BioAssay AID588689.

Overview of reported inhibition across a group of compounds:
# target.of.assay: Genome polyprotein (Dengue virus type 2 (strain 16681-PDK53))
# test.description: flavivirus cap methylation enzyme inhibition – biochemical, confirmation dose response, primary screen (AID 588689)
# particulars: Dengue-2 NS5 methyltransferase capping enzyme assay, at 25 µM, stronger effect = higher value
Screen size: about 340,000 compounds; about 1,000 (0.29%) were called active. The list is a sample of the results. Potency and affinity values are given separately.
Write down the numeric answer in % and omit the unit.

Hey, Genome polyprotein (Dengue virus type 2 (strain 16681-PDK53)) data for "Cc1ccn(-c2cc(O)c(-n3ccc(C)n3)cc2O)n1" : inhibition came out at -6.11

Hey, Genome polyprotein (Dengue virus type 2 (strain 16681-PDK53)) data for "c1ccc2c(-n3cccn3)cccc2c1" : inhibition came out at -11.8

Hey, Genome polyprotein (Dengue virus type 2 (strain 16681-PDK53)) data for "Cc1csc2c(=O)n3c(nc12)CCCCC3" : inhibition came out at -3.21

Hey, Genome polyprotein (Dengue virus type 2 (strain 16681-PDK53)) data for "Nc1cccc2c(O)cccc12" : inhibition came out at 6.13

Hey, Genome polyprotein (Dengue virus type 2 (strain 16681-PDK53)) data for "N#CCC(=O)N/N=C/c1ccc(OS(=O)(=O)c2ccccc2)cc1" : inhibition came out at -3.76

More entries:
Hey, Genome polyprotein (Dengue virus type 2 (strain 16681-PDK53)) data for "Nc1cccc2cc(S(=O)(=O)O)ccc12" : inhibition came out at 13.9

Hey, Genome polyprotein (Dengue virus type 2 (strain 16681-PDK53)) data for "COc1ccccc1CNS(=O)(=O)c1cccc2nsnc12" : inhibition came out at 3.22

* * *

Overview of reported inhibition across a group of compounds:
# target.of.assay: Genome polyprotein (Dengue virus type 2 (strain 16681-PDK53)) (UniProt P29991)
# Sequence (P29991 whole entry, looked up): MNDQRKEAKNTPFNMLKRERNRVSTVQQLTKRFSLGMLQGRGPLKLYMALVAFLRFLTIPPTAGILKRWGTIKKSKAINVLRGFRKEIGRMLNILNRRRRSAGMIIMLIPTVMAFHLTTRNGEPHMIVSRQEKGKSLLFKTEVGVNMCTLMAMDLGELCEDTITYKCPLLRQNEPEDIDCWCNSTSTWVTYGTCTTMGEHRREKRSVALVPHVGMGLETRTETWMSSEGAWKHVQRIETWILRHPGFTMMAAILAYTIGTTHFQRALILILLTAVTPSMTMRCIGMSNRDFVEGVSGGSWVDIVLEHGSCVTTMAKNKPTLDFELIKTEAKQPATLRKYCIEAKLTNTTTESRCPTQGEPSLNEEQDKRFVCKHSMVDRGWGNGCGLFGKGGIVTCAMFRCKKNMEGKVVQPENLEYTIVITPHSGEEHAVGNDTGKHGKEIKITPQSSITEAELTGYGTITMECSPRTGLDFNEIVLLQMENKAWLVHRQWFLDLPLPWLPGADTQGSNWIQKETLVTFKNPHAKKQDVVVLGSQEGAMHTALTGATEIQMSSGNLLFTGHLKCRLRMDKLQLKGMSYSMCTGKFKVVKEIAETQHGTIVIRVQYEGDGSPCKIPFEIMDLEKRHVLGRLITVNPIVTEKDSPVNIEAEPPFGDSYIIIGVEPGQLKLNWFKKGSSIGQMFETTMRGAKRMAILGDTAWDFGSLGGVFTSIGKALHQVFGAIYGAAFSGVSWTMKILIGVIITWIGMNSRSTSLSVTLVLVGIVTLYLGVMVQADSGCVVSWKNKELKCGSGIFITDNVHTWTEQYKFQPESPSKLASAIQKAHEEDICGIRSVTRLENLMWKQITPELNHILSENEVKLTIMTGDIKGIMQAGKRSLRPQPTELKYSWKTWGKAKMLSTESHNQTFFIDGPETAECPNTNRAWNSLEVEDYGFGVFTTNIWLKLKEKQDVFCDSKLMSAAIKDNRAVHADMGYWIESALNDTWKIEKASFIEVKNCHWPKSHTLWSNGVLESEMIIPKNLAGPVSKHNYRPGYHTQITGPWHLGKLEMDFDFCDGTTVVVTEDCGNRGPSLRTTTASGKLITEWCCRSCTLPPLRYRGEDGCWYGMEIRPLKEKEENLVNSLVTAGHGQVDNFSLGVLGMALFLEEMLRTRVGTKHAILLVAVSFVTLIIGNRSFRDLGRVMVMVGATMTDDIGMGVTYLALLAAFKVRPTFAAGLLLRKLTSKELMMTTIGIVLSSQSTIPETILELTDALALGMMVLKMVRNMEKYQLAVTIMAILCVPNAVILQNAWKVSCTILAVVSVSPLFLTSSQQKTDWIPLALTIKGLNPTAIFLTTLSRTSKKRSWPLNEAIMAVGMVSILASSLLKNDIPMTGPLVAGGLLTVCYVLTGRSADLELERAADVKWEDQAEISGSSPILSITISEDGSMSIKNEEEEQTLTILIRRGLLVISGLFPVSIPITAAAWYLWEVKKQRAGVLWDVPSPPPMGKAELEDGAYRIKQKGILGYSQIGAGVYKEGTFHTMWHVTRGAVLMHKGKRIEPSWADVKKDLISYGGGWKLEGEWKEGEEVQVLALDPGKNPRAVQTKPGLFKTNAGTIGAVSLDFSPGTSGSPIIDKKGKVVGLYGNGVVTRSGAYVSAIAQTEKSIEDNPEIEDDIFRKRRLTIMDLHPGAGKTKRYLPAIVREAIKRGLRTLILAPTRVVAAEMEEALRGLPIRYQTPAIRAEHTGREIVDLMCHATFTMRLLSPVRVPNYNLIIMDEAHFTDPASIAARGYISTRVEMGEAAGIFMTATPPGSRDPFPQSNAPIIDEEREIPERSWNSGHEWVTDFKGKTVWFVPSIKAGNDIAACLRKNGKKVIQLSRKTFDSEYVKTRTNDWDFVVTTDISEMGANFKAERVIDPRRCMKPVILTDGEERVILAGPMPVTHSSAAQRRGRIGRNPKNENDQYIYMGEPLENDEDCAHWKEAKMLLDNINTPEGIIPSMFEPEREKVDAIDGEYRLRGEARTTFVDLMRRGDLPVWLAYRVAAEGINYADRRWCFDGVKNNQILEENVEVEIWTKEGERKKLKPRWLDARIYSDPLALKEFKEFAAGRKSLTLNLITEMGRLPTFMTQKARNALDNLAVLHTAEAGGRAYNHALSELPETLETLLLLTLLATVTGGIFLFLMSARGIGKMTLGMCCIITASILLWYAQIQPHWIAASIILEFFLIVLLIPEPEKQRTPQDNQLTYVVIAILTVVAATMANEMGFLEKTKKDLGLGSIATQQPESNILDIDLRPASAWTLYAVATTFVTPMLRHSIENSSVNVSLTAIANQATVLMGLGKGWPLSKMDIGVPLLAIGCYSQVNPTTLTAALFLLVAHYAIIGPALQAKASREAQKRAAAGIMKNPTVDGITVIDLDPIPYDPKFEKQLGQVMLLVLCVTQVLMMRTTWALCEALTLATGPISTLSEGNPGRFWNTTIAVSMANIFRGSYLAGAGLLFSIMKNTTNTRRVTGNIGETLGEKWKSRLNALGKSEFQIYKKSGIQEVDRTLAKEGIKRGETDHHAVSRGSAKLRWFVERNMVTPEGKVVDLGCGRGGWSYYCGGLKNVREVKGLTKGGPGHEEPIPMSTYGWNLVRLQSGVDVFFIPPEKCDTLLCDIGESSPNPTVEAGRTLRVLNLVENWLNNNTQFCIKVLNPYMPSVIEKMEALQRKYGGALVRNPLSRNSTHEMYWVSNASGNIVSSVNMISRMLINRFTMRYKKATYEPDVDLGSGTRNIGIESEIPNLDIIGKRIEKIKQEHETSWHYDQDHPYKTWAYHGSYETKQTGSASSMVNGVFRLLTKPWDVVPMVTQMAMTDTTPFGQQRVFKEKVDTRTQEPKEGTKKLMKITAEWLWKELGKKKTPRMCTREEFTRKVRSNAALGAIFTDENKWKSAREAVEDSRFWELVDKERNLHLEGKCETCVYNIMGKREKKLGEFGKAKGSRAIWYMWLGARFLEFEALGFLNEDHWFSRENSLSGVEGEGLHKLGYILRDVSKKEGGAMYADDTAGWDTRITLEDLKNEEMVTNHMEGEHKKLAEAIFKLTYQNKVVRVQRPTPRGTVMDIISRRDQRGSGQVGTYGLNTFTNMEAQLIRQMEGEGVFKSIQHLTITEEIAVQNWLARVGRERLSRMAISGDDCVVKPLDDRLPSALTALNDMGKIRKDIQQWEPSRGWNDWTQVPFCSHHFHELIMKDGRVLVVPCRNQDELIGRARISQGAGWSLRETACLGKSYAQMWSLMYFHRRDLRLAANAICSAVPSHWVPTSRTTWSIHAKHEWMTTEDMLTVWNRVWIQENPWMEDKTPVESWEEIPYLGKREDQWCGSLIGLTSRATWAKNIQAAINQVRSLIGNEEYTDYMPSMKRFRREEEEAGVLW
# test.description: flavivirus cap methylation enzyme inhibition – biochemical, confirmation dose response, primary screen (AID 588689)
# particulars: Dengue-2 NS5 methyltransferase capping enzyme assay, at 25 µM, stronger effect = higher value
In all, about 340,000 compounds went through this assay and about 1,000 (0.29%) were called active. A selection follows. Results with a measured potency or affinity are listed apart.
Write down the numeric answer in % and omit the unit.

Examples with answers:
// recorded inhibition for CNC(=O)CC1C(=O)N(C)C(=S)N1NC(=O)c1ccccc1 (stereo not drawn) : 2.33

// recorded inhibition for "O=C1C(=C(O)c2ccccc2)C(=O)c2ccccc21" : 12.9

// recorded inhibition for "CCN(Cc1cnn(C)c1)Cc1nc(Cc2ccccc2Cl)no1" : -2.18

More entries:
// recorded inhibition for "COc1ccc(O)c(C(=O)c2cc(SCC(=O)O)c3nc4sc5c(c4c(=O)n3c2)CCCC5)c1" : 69.1

// recorded inhibition for "Cc1occc1C(=O)NNC(=O)c1ccccc1[N+](=O)[O-]" : 1.62

// recorded inhibition for "CC1=NOC(=O)/C1=C/c1ccc(O)cc1" : 33.3

// recorded inhibition for "O=S(=O)(Nc1nc(-c2ccccc2)cs1)c1cc(Cl)ccc1Cl" : 28.3

* * *

# target.of.assay: Genome polyprotein (Dengue virus type 2 (strain 16681-PDK53)) (UniProt P29991)
# test.description: flavivirus cap methylation enzyme inhibition – biochemical, confirmation dose response, primary screen (AID 588689)
# particulars: Dengue-2 NS5 methyltransferase capping enzyme assay, at 25 µM, stronger effect = higher value
The whole screen tested about 340,000 compounds, of which about 1,000 (0.29%) were called active. These entries were drawn from the full list. Potency and affinity values are given separately.
measurement.name: inhibition (%)
Write down the numeric answer in % and omit the unit.

// recorded inhibition for "Cn1c(=O)c2c(ncn2CCC(=O)N/N=C/c2cccnc2)n(C)c1=O" : 0.78

// recorded inhibition for "COc1ccc(-n2c(SCC(=O)Nc3cc(C)on3)nc3ccc(O)cc3c2=O)cc1OC" : -6.42

// recorded inhibition for COc1cc2c(cc1C1C(C#N)=C(N)OC3=C1C(=O)CC(C)(C)C3)OCO2 (stereo not given) : 2.7

// recorded inhibition for "CCOc1ccc(/C=C2\SC(=S)N(Nc3ccccc3)C2=O)cc1OC" : 8.01

// recorded inhibition for "COc1cc(/C=C2/SC(=S)NC2=O)ccc1OS(=O)(=O)c1ccc(C)cc1" : 9.96
